Recorded values, source patent US12216122B2.

- system: His-tagged IDO1 human recombinant protein (Homo sapiens, UniProt P14902)
- Construct: purchased BPS Biosciences 71182
- test.method.notes: IDO1 ELISA (Affinity Assay): sandwich ELISA, biotinylated ligand immobilized on NEUTRAVIDIN plate
- Format: binding
Bridge positions count the residues as written; N and C are the ends. Square brackets hold non-standard residues; d marks the D form. Triazole bridges read from a SMILES are 1,4-linked. Peptide text beside a SMILES is read from it. * marks the point of attachment. Biotinyl(3aR,4R,6aS) = O=C1N[C@@H]2[C@@H](CS[C@@H]2CCCCC(=O)*)N1; Lys(N3) = [N-]=[N+]=NCCCC[C@H](N)C(=O)O; AEEEA = NCCOCCOCCOCC(=O)O; Pra = C#CC[C@H](N)C(=O)O
parameter.measured: Binding to human IDO1 by ELISA, in words

C[C@H]1NC(=O)[C@@H](CCCNC(=N)N)NC(=O)[C@@H](Cc2ccc(O)cc2)NC(=O)[C@@H](NC(=O)COCCOCCOCCNC(=O)CCCC[C@H]2SC[C@H]3NC(=O)N[C@H]32)Cc2cn(nn2)CCCC[C@@H](C(N)=O)NC(=O)[C@@H](Cc2ccc(O)cc2)NC1=O [yray, Biotin-PEG3-Cy(yray)] ({Biotinyl(3aR,4R,6aS)-AEEEA}-[Pra][dY][dR][dA][dY][Lys(N3)]-NH2; triazole 1-6)	less potent binders
C[C@H]1NC(=O)[C@@H](CCCNC(=N)N)NC(=O)[C@@H](Cc2c[nH]c3ccccc23)NC(=O)[C@@H](NC(=O)COCCOCCOCCNC(=O)CCCC[C@H]2SC[C@H]3NC(=O)N[C@H]32)Cc2cn(nn2)CCCC[C@@H](C(N)=O)NC(=O)[C@@H](Cc2ccc(O)cc2)NC1=O [wray, Biotin-PEG3-Cy(wray)] ({Biotinyl(3aR,4R,6aS)-AEEEA}-[Pra][dW][dR][dA][dY][Lys(N3)]-NH2; triazole 1-6)	less potent binders

###

- system: IDO1 in IFNγ stimulated HeLa cells (Homo sapiens, UniProt P14902)
- Construct: endogenous in cells; host or cells: HeLa cells stimulated with IFNγ
- Sequence (P14902 whole entry): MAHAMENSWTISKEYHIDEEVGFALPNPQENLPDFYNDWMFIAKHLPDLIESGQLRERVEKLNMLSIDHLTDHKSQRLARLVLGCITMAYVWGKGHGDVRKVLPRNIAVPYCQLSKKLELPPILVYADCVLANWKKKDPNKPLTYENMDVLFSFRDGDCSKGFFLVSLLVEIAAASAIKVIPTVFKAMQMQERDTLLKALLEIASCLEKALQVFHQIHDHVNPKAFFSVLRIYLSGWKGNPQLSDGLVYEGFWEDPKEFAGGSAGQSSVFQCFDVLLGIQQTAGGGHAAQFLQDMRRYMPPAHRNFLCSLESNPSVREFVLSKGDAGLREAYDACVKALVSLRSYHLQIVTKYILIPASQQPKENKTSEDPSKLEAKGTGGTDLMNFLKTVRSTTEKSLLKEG
- test.method.notes: IDO1 inhibition assay in HeLa cells stimulated with IFNγ
- Assay type: cell-based
- condition.context: HeLa, read-out: % inhibition at 8 μM, HeLa; Table 17; 8 μM
Bridge positions count the residues as written; N and C are the ends. Square brackets hold non-standard residues; d marks the D form. Triazole bridges read from a SMILES are 1,4-linked. Peptide text beside a SMILES is read from it. * marks the point of attachment. X1 = O=C(CSc1nonc1/C(=N/O)Nc1ccc(F)c(Br)c1)*; PEG8 = NCCOCCOCCOCCOCCOCCOCCOCCOCCC(=O)O; Lys(N3) = [N-]=[N+]=NCCCC[C@H](N)C(=O)O; PEG6 = NCCOCCOCCOCCOCCOCCOCCC(=O)O; Pra = C#CC[C@H](N)C(=O)O
parameter.measured: inhibition at 8 µM (%)
Give bare numbers, in %.

Worked examples follow.
CC(C)[C@H]1NC(=O)[C@@H](Cc2ccc(O)cc2)NC(=O)[C@@H](Cc2c[nH]c3ccccc23)NC(=O)[C@@H](NC(=O)CCOCCOCCOCCOCCOCCOCCNC(=O)CSc2nonc2/C(=N/O)Nc2ccc(F)c(Br)c2)Cc2cn(nn2)CCCC[C@@H](C(N)=O)NC(=O)[C@@H](Cc2ccc(O)cc2)NC(=O)[C@@H](C)NC1=O [Inh-PEG6-wyvay] ({X1-PEG6}-[Pra][dW][dY][dV][dA][dY][Lys(N3)]-NH2; triazole 1-7)	36.1
N=C(N)NCCC[C@H]1NC(=O)[C@@H](Cc2ccc(O)cc2)NC(=O)[C@@H](Cc2c[nH]c3ccccc23)NC(=O)[C@@H](NC(=O)CCOCCOCCOCCOCCOCCOCCNC(=O)CSc2nonc2/C(=N/O)Nc2ccc(F)c(Br)c2)Cc2cn(nn2)CCCC[C@@H](C(N)=O)NC(=O)[C@@H](Cc2ccc(O)cc2)NC1=O [Inh-PEG6-wyry] ({X1-PEG6}-[Pra][dW][dY][dR][dY][Lys(N3)]-NH2; triazole 1-6)	47.8
CC(C)[C@H]1NC(=O)[C@@H](Cc2ccc(O)cc2)NC(=O)[C@@H](Cc2c[nH]c3ccccc23)NC(=O)[C@@H](NC(=O)CCOCCOCCOCCOCCOCCOCCOCCOCCNC(=O)CSc2nonc2/C(=N/O)Nc2ccc(F)c(Br)c2)Cc2cn(nn2)CCCC[C@@H](C(N)=O)NC(=O)[C@@H](Cc2ccc(O)cc2)NC(=O)[C@@H](C)NC1=O [Deprotected-Inh-PEG8-wyvay] ({X1-PEG8}-[Pra][dW][dY][dV][dA][dY][Lys(N3)]-NH2; triazole 1-7)	77.3

Turning now to a further record.
Give the reported value of inhibition at 8 µM for this record: "O=C(O)CSc1nonc1/C(=N/O)Nc1ccc(F)c(Br)c1" 99.6
